From: ChEMBL document CHEMBL1201862

# Test system: SN12C
# protocol.description: NCI tumour cell line growth inhibition, 48 h
Active and inactive are the calls of the source. Rule as the data show it: active = GI50 up to about 1.1 µM and inactive = higher.
Hi there, I'd appreciate the recorded GI50 for every entry that follows.

Reference set (4 entries):
>  <compound.smiles>
O=C1N[C@H](Cc2c[nH]cn2)C(=O)N2CCC[C@@H]12

>  <GI50>
> 100 µM (inactive)

$$$$
>  <compound.smiles>
COC(=O)c1nc2n(n1)-c1ccccc1C(=O)N(Cc1ccccc1)C2

>  <GI50>
> 100 µM (inactive)

$$$$
>  <compound.smiles>
COc1cc(OC)cc(-n2c(N)c(C#N)c3ccc([N+](=O)[O-])cc3c2=O)c1

>  <GI50>
20.4 µM (inactive)

$$$$
>  <compound.smiles>
Cc1c(-c2ccccc2)c(C#N)c2nnn(-c3ccc([N+](=O)[O-])cc3)c(=O)n12

>  <GI50>
22.4 µM (inactive)

$$$$

As a next step, examine the compound that follows.
Bench note: what GI50 did O=C(c1ccccc1)c1ccc(N2C(=O)/C(=C/c3cccc([N+](=O)[O-])c3)N=C2c2ccccc2)c(N2C(=O)/C(=C/c3cccc([N+](=O)[O-])c3)N=C2c2ccccc2)c1 show?
98.4 µM (inactive)

---

# Test system: MOLT-4
# protocol.description: NCI tumour cell line growth inhibition, 48 h
Active and inactive are the calls of the source. No stated cut-off is given here; in the data, active = GI50 up to about 1.1 µM and inactive = higher.
A correct response names exactly one class from True (active), False (inactive)

Recorded results for 3 molecules are shown here.
>  <molecule>
O=S(=O)(c1cc(Cl)ccc1Cl)n1ccnc1

>  <study.target>
MOLT-4

>  <label.class>
False

$$$$
>  <molecule>
COC(=O)c1nc2n(n1)-c1ccccc1C(=O)N(Cc1ccccc1)C2

>  <study.target>
MOLT-4

>  <label.class>
False

$$$$
>  <molecule>
CC(C)NC(=O)OCCN=C1c2ccccc2CCc2ccccc21

>  <study.target>
MOLT-4

>  <label.class>
False

$$$$

# outcome recorded in this test, key = NC(=S)N/N=C(/C(=O)Nc1nc2ccc([N+](=O)[O-])cc2s1)C1C(=O)NC(=S)NC1=O
False

# outcome recorded in this test, key = O=C1OC[C@@H]2Cc3cc4c(cc3[C@H](c3ccc5c(c3)OCO5)[C@@H]12)OCO4
False

# outcome recorded in this test, key = COP(=O)(OC)C(NC=O)P(=O)(OC)OC
False

# outcome recorded in this test, key = COc1cc(/C=C2\Cc3ccccc3C2=O)cc(OC)c1OC
False

---

# Test system: NCI-H23
# protocol.description: NCI tumour cell line growth inhibition, 48 h
The source made the active and inactive calls. Rule as the data show it: active = GI50 up to about 1.1 µM and inactive = higher.
Hi there, I'd appreciate the recorded GI50 for every entry that follows.

>  <molecule>
CC(C)CCCC(C)[C@H]1CC[C@H]2[C@@H]3CC[C@H]4C[C@@H](CCC=C(c5cc(Cl)c(O)c(C(=O)OC(C)C)c5)c5cc(Cl)c(O)c(C(=O)OC(C)C)c5)CC[C@]4(C)[C@H]3CC[C@]12C (some centres not stated)

>  <endpoint.label>
GI50

>  <reading>
> 50 µM (inactive)

$$$$
>  <molecule>
Cc1ccc(NC(=O)c2cc(S(=O)(=O)Nc3nc4cccnc4[nH]3)c(SSc3cc(Cl)c(C(=O)Nc4ccc(C)cc4)cc3S(=O)(=O)Nc3nc4cccnc4[nH]3)cc2Cl)cc1

>  <endpoint.label>
GI50

>  <reading>
> 100 µM (inactive)

$$$$
>  <molecule>
COC(=O)C1=COC(OC2OC(CO)C(O)C(O)C2O)C2C3CN4CCc5c([nH]c6ccccc56)C4(CC12)O3 (configuration not stated)

>  <endpoint.label>
GI50

>  <reading>
> 100 µM (inactive)

$$$$
>  <molecule>
O=C1OC[C@@H]2Cc3cc4c(cc3[C@H](c3ccc5c(c3)OCO5)[C@@H]12)OCO4

>  <endpoint.label>
GI50

>  <reading>
> 25 µM (inactive)

$$$$
>  <molecule>
COc1ccc([N+]2=NC(c3ccc([N+](=O)[O-])cc3)=NN(c3ccccc3)C2)cc1.[O-][Cl+3]([O-])([O-])[O-]

>  <endpoint.label>
GI50

>  <reading>
> 100 µM (inactive)

$$$$
>  <molecule>
NC(=O)CCC(Nc1c2ccccc2[n+]([O-])c2ccccc12)C(=O)O (configuration not stated)

>  <endpoint.label>
GI50

>  <reading>
35.6 µM (inactive)

$$$$
>  <molecule>
NC(=O)SCCC(N)C(=O)O (configuration not stated)

>  <endpoint.label>
GI50

>  <reading>
> 100 µM (inactive)

$$$$
>  <molecule>
c1ccc2c(c1)nc1n2CNC1

>  <endpoint.label>
GI50

>  <reading>
> 100 µM (inactive)

$$$$

Hello, I would appreciate it if you could give GI50 for each entry below.
1. CCC(C)(C)c1ccc(Oc2cccc(C(=O)O)c2)cc1
2. CC(C)=CCNc1ncnc2[nH]cnc12
3. O=C(C/C(=N/O)c1cc(-c2ccccc2)no1)c1ccccc1
4. COc1ccc(-c2cc(O)c3ccc(F)cc3n2)cc1
5. C/C(CC(=O)Nc1cc(C)ccc1C)=N\NC(=O)c1ccncc1

1: 52.2 µM (inactive); 2: > 100 µM (inactive); 3: 20.9 µM (inactive); 4: > 100 µM (inactive); 5: > 100 µM (inactive)

---

# Test system: HOP-62
# protocol.description: NCI tumour cell line growth inhibition, 48 h
Calls of active or inactive are those of the source. Cut-off read from the data, not from the text of the source: active = GI50 up to about 1.1 µM and inactive = higher.
A correct response names exactly one class from 1 (active), 0 (inactive)

Recorded results for 2 compounds are shown here.
>  <compound>
C=C(C)[C@@H]1CCC2=C(CC[C@]3(C)[C@@H]([C@@H](CCC=C(C)C)C(=O)O)[C@H](O)C[C@@]23C)[C@@]1(C)CCC(=O)O

>  <study.target>
HOP-62

>  <label.class>
0

$$$$
>  <compound>
Cc1ccc2oc(=O)cc(CC(=O)O)c2c1

>  <study.target>
HOP-62

>  <label.class>
0

$$$$

# outcome recorded in this test, key = CCC(CCCN)Nc1cc(OC)cc2cccnc12 (configuration not stated)
0

---

# Tested on: HCT-116
# protocol.description: NCI tumour cell line growth inhibition, 48 h
Calls of active or inactive are those of the source. Cut-off read from the data, not from the text of the source: active = GI50 up to about 1.1 µM and inactive = higher.
A correct response names exactly one class from True (active), False (inactive)

Recorded results for 3 molecules are shown here.
>  <molecule>
C/C=C/C=C\C(=O)C1c2cccc(O)c2C(=O)c2c(O)cc(C)cc21 (centres undefined)

>  <label.class>
False

$$$$
>  <molecule>
CCC(C)(C)c1ccc(Oc2cccc(C(=O)O)c2)cc1

>  <label.class>
False

$$$$
>  <molecule>
CCCCCCCCCCCCCC[C@@H](O)[C@H]1CC[C@H]([C@H]2CC[C@H]([C@H](O)CCCCCC[C@@H](O)CC3=C[C@H](C)OC3=O)O2)O1

>  <label.class>
True

$$$$

# outcome recorded in this test, key = c1ccc(CNC2CC(NCc3ccccn3)CC(NCc3ccccn3)C2)nc1 (centres undefined)
False

---

# Tested on: SR
# protocol.description: NCI tumour cell line growth inhibition, 48 h
Activity calls are given as the source filed them. No stated cut-off is given here; in the data, active = GI50 up to about 1.1 µM and inactive = higher.
A correct response names exactly one class from Y = active, N = inactive

Recorded results for 3 compounds are shown here.
>  <compound>
Cc1no[n+]([O-])c1/C=N/NS(=O)(=O)c1ccccc1

>  <study.target>
SR

>  <label.class>
N

$$$$
>  <compound>
CC(=O)N(CC(=O)C(=O)NNc1ccoc1)c1ccc(Cl)cc1

>  <study.target>
SR

>  <label.class>
N

$$$$
>  <compound>
COc1ccc2c(c1)CCN1CCc3cc(OC)c(OC)cc3CC21 (centres undefined)

>  <study.target>
SR

>  <label.class>
N

$$$$

Would you kindly look at the next entry?
# outcome recorded in this test, key = O=C(C=P(c1ccccc1)(c1ccccc1)c1ccccc1)c1ccc(-c2cccc([N+](=O)[O-])c2)s1
N

---

# Test system: SW-620
# protocol.description: NCI tumour cell line growth inhibition, 48 h
Activity calls are given as the source filed them. Rule as the data show it: active = GI50 up to about 1.1 µM and inactive = higher.
Hi there, I'd appreciate the recorded GI50 for every entry that follows.

Reference set (5 entries):
>  <compound>
CCOP(=O)(OCC)/C(C#N)=C/c1cn(C)cn1

>  <study.target>
SW-620

>  <reading>
> 100 µM (inactive)

$$$$
>  <compound>
O=S(=O)(c1cc(Cl)ccc1Cl)n1ccnc1

>  <study.target>
SW-620

>  <reading>
77.4 µM (inactive)

$$$$
>  <compound>
CC(C)SC(=S)Sc1c(Cl)c(Cl)nc(Cl)c1Cl

>  <study.target>
SW-620

>  <reading>
2.88 µM (inactive)

$$$$
>  <compound>
O=P1(N(CCCl)CCCl)Oc2ccc(Cl)cc2Sc2c(ccc(Cl)c2Cl)O1 (stereo unspecified)

>  <study.target>
SW-620

>  <reading>
6.68 µM (inactive)

$$$$
>  <compound>
Cc1ccc(C(=O)N/N=C(\N=N\c2ccccc2[N+](=O)[O-])c2ccc(N(C)C)cc2)cc1

>  <study.target>
SW-620

>  <reading>
> 100 µM (inactive)

$$$$

As a next step, examine the compound that follows.
Bench note: what GI50 did [O-][S+]1Nc2c(Cl)cc(Cl)c(Cl)c2S1 (stereo unspecified) show?
5.62 µM (inactive)
